Reference for the values: patent US20240150293A1

molecular target: Mcl-1 protein (UniProtKB Q07820) (Homo sapiens (Human), UniProt Q07820); test: Inhibition of Mcl-1 by the fluorescence polarisation assay (Example A, Method A); conditions: fluorescence polarization assay
Sequence (Q07820 whole entry): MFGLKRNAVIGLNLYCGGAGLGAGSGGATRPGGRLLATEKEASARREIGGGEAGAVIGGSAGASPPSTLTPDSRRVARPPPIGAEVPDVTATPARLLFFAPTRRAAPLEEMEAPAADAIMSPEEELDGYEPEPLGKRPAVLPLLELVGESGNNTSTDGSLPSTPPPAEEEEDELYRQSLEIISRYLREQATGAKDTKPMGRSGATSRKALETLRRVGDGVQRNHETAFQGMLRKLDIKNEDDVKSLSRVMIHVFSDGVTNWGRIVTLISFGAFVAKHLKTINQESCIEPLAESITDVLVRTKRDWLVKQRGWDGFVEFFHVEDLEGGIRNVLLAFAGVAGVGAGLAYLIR
The label TRUE is reserved for Ki strictly under 0.2 µM; FALSE covers values equal to or above it.

Field: example entries. Status: answers known.
O=C(NCCc1ccccc1)C1Cc2ccccc2[C@]12CC[C@@](Nc1cccc(Cl)c1)(C(=O)O)CC2 (single isomer, unassigned) [Example 405] ... FALSE
CC(C)Oc1ccc2c(c1)[C@]1(CC[C@@](Nc3cccc(Cl)c3)(C(=O)O)CC1)C(c1cccc(Oc3ccccc3)c1)C2 (single isomer, unassigned) ... FALSE
O=C(O)C1(Nc2cccc(Cl)c2)CCC2(CC1)c1ccccc1CC2CCCOc1ncnc2c1CCCC2 (centres unmarked) ... TRUE

Prompt line: Confirm or reject: Ki of O=C(O)[C@]1(Nc2cccc(Cl)c2)CC[C@@]2(CC1)c1ccccc1C[C@@H]2c1ccc(Oc2ccccc2)cc1 lies strictly below 0.2 µM
Response line: FALSE

Prompt line: O=C(O)[C@]1(Nc2cccc(Cl)c2)CC[C@]2(CC1)C(Br)=Cc1cc(F)ccc12 ?
Response line: FALSE

Prompt line: O=C(O)[C@]1(Nc2cccc(Cl)c2)CC[C@@]2(CC1)c1ccccc1CC2CCCS(=O)(=O)c1ccccc1 (some centres unmarked) ?
Response line: FALSE

Prompt line: COc1cccc(C2Cc3ccccc3[C@]23CC[C@@](Nc2cccc(Cl)c2)(C(=O)O)CC3)c1 (single isomer, unassigned) [Example 272] ?
Response line: TRUE

Prompt line: O=C(O)[C@]1(Nc2cccc(Cl)c2)CC[C@]2(CC1)C(c1ccc3ccoc3c1)=Cc1ccccc12 ?
Response line: FALSE

Prompt line: C[C@@H](COc1ccncc1)C[C@H]1Cc2ccccc2[C@]12CC[C@@](Nc1cccc(Cl)c1)(C(=O)O)CC2 ?
Response line: TRUE

Prompt line: Cc1cc2nccc(OCCCC3Cc4ccccc4[C@]34CC[C@@](Nc3cccc(Cl)c3)(C(=O)O)CC4)c2s1 (some centres unmarked) ?
Response line: TRUE

Prompt line: O=C(O)[C@]1(Nc2cc(Cl)cc(Cl)c2)CC[C@@]2(CCCc3ccccc32)CC1 ?
Response line: FALSE

Prompt line: C[C@H](COc1ccnc2ccsc12)CC1Cc2ccccc2[C@]12CC[C@@](Nc1cccc(Cl)c1)(C(=O)O)CC2 (some centres unmarked) ?
Response line: FALSE

Prompt line: O=C(O)[C@]1(Nc2cccc(Cl)c2)CC[C@]2(CC1)C(C1CN(Cc3ccncc3)C1)=Cc1ccccc12 ?
Response line: FALSE

Prompt line: O=C(O)[C@]1(Nc2cccc(Cl)c2)CC[C@@]2(CC1)c1ccccc1CC2CCCOc1ccncc1 (some centres unmarked) ?
Response line: TRUE

====

biological target: Mcl-1 protein (UniProtKB Q07820) (Homo sapiens (Human), UniProt Q07820); assay: Inhibition of Mcl-1 by the fluorescence polarisation assay (Example A, Method A); conditions: fluorescence polarization assay
endpoint: Ki (µM)
// return numeric value only (unit: µM, not printed)

Sample records with Ki:
O=C(O)[C@]1(Nc2cccc(Cl)c2)CC[C@]2(CC1)C(C#Cc1ccncc1)=Cc1ccccc12 [Example 173] ... 0.455
CC1N(C=O)c2ccccc2[C@]12CC[C@](Nc1cccc(Br)c1)(C(=O)O)CC2 (stereo partly shown) [Example 26] ... 42.8
C[C@@H](COc1ccnc2c1CCCCC2)C[C@H]1Cc2ccccc2[C@]12CC[C@@](Nc1cccc(Cl)c1)(C(=O)O)CC2 [Example 633] ... 0.0053

Switching to the query record.
Prompt line: Report Ki for CN(CCc1ccncc1)C(=O)C1=Cc2ccccc2[C@]12CC[C@@](Nc1cccc(Cl)c1)(C(=O)O)CC2 [Example 403] tested on Mcl-1 protein (UniProtKB Q07820) (Homo sapiens (Human), UniProt Q07820).
Response line: 8.21
